biological target: 5-HT2A receptor (Homo sapiens); experiment: biochemical; type: binding; settings: ratio of Ki values
Quick reference: Selectivity (binding ratios) 5-HT2A : 5-HT1A of the listed items.
Quick one: just the number, no unit, thanks!

Would you please look over these solved cases?
• COc1ccc(OC)c(CCNCc2ccccc2OC)c1 [25H-NBOMe] = 920
• CCc1cc(OC)c(CCNCc2ccccc2OC)cc1OC [25E-NBOMe] = 13200
• COc1cc(CCNCc2ccccc2O)c(OC)cc1I [25I-NBOH] = 13100
• COc1cc(CCNCc2ccccc2OC)c(OC)cc1C [25D-NBOMe] = 20500

Now turn to the next compound.
In: Please report Selectivity (binding ratios) 5-HT2A : 5-HT1A with 5-HT2A receptor (Homo sapiens) for item COc1cc([N+](=O)[O-])c(OC)cc1CCNCc1ccccc1OC [25N-NBOMe] .
Out: 15700

---

molecular target: 5-HT2A receptor (Homo sapiens, UniProt P28223); experiment: cell-based; type: cell-based; details: ratio of EC50 values
Sequence (P28223 whole entry): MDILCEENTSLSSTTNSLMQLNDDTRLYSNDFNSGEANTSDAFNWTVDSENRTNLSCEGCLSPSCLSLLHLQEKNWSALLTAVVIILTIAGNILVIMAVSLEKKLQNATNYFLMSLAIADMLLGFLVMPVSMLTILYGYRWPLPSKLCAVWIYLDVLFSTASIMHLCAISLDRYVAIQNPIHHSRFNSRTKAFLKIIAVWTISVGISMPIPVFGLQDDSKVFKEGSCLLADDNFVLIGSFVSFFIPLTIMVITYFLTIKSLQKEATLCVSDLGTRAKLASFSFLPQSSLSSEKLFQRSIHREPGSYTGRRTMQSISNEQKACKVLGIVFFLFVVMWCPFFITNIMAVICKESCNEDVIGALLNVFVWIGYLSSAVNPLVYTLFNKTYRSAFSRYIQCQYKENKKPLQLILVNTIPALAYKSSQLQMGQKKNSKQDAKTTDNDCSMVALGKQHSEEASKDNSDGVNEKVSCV
Endpoint Label: Selectivity (functional ratios) 5-HT2A: 5-HT1A
In your answer, state the number alone without any accompanying words.

In: Name the recorded Selectivity (functional ratios) 5-HT2A: 5-HT1A of the compound listed here: COc1ccc(OC)c(CCNCc2ccccc2OC)c1 [25H-NBOMe]
Out: 700

In: Give the reported Selectivity (functional ratios) 5-HT2A: 5-HT1A for this compound. COc1cc([N+](=O)[O-])c(OC)cc1CCNCc1ccccc1OC [25N-NBOMe]
Out: 9400

In: Assign Selectivity (functional ratios) 5-HT2A: 5-HT1A to the following record: COc1cc(CCNCc2ccccc2OC)c(OC)cc1C [25D-NBOMe]
Out: 3900

---

Listed here are molecules together with their documented Emax.
Target: human 5-HT1A receptor (Homo sapiens, UniProt P08908)
Sequence (P08908 1-422): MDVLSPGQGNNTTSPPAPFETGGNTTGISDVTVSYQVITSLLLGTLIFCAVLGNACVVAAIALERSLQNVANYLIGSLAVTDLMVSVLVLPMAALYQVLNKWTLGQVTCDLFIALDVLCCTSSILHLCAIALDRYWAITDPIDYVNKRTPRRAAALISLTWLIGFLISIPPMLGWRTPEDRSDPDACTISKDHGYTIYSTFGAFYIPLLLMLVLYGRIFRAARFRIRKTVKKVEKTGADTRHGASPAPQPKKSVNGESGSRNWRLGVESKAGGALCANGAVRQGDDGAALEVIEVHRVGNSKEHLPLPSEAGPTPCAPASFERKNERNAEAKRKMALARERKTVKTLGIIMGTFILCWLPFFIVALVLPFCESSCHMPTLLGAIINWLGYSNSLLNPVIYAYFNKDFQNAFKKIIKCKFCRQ
Assay: 5-HT1A receptor [^35S]GTPγS binding stimulation
Type: biochemical
Settings: read-out: % maximum stimulation, 5-HT1A stimulation of [^35S]GTPγS binding
Report as a plain number; the unit % is understood.

Sample records with Emax:
- CCc1cc(OC)c(CCNCc2ccccc2OC)cc1OC [25E-NBOMe]: 38
- COc1cc(CCNCc2ccccc2OC)c(OC)cc1C [25D-NBOMe]: 55
- COc1cc(CCNCc2ccccc2O)c(OC)cc1I [25I-NBOH]: 74

Now look at this one.
In: Specify reported Emax for the molecule shown: COc1ccc(OC)c(CCNCc2ccccc2OC)c1 [25H-NBOMe]
Out: 52

---

List of Ki tested on 5-HT2B receptor (Homo sapiens, UniProt P41595).
Sequence (P41595 whole entry): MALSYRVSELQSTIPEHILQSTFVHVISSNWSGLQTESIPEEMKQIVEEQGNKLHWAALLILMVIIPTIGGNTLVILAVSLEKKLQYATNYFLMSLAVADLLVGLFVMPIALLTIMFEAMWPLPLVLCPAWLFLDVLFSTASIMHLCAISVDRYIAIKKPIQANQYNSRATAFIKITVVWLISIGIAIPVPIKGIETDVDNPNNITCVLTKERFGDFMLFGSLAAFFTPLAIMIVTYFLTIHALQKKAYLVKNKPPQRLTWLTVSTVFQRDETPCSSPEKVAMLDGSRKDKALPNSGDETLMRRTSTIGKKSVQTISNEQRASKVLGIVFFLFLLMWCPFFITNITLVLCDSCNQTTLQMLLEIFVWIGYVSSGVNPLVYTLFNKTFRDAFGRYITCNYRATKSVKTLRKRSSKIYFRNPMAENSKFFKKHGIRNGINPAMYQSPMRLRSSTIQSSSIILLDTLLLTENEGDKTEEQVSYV
Give just the numeric value; nM need not be written.

See these solved cases before continuing.
* COc1cc(CCNCc2ccccc2O)c(OC)cc1I [25I-NBOH] | 1.91
* COc1ccc(OC)c(CCNCc2ccccc2OC)c1 [25H-NBOMe] | 62.9

In: With 5-HT2B receptor (Homo sapiens, UniProt P41595) as the test system, provide measured Ki for this compound: CCc1cc(OC)c(CCNCc2ccccc2OC)cc1OC [25E-NBOMe]
Out: 1.11

In: Provide 5-HT2B receptor (Homo sapiens, UniProt P41595) Ki reading for COc1cc(CCNCc2ccccc2OC)c(OC)cc1C [25D-NBOMe] .
Out: 2.05

---

# pKi per entry
target: hDAT (Homo sapiens); assay: Inhibition of [^125I]RTI-55 binding to hDAT
Counter-ions that a name gives are not always drawn.
pKi is a log-scale quantity: -log10 of the concentration expressed in molar.

Some solved entries appear below for comparison.
- CCc1cc(OC)c(CCNCc2ccccc2OC)cc1OC [25E-NBOMe]: 4.71
- COc1cc(CCNCc2ccccc2O)c(OC)cc1I [25I-NBOH]: 5.07
- COc1cc(CCNCc2ccccc2OC)c(OC)cc1C [25D-NBOMe]: 4.46
- COc1ccc(OC)c(CCNCc2ccccc2OC)c1 [25H-NBOMe]: 4.09

In: Supply recorded pKi for NCCc1c[nH]c2ccc(O)cc12 [5-HT, Serotonin hydrochloride, reference compound] here.
Out: 3.43

---

target: hNET (Homo sapiens, UniProt P23975); assay: biochemical; assay type: binding
Sequence (P23975 whole entry): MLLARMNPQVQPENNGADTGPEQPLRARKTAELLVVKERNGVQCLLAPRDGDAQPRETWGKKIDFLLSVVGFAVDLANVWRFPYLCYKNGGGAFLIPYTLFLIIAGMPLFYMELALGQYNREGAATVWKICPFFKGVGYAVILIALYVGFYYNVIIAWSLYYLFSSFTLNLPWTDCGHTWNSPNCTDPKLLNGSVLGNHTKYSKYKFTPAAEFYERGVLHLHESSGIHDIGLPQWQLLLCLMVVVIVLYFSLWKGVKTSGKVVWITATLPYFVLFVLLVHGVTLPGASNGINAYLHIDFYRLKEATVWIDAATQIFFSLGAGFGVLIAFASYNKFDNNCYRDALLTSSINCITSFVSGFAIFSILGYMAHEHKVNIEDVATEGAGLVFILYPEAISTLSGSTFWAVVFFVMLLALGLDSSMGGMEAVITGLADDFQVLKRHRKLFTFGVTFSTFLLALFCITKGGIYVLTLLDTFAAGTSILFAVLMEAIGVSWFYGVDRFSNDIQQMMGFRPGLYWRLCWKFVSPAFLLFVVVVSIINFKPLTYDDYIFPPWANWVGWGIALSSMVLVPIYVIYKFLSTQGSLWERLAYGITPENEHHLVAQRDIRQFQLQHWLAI
Counter-ions that a name gives are not always drawn.
Exam item: assign 1 to entries whose Ki is below 4 µM and 0 to entries at or above 4 µM. Note that a value of exactly 4 µM receives 0.

Examples from the recorded data:
• CCc1cc(OC)c(CCNCc2ccccc2OC)cc1OC [25E-NBOMe] = 0
• OC1(c2ccc(Cl)cc2)c2ccccc2C2=NCCN21 (stereo not drawn) [Mazindol, reference compound] = 1
• NCCc1c[nH]c2ccc(O)cc12 [5-HT, Serotonin hydrochloride, reference compound] = 0
• COc1cc(CCNCc2ccccc2OC)c(OC)cc1C [25D-NBOMe] = 0

Here is another molecule to look at.
In: Dear colleague, could you confirm whether Ki of COc1ccc(OC)c(CCNCc2ccccc2OC)c1 [25H-NBOMe] falls below 4 µM? Thanks.
Out: 0

---

target: 5-HT2C receptor (Homo sapiens, UniProt P28335); assay: cell-based; details: read-out: % maximum stimulation, 5-HT2C stimulation of IP-1 formation
Sequence (P28335 33-458): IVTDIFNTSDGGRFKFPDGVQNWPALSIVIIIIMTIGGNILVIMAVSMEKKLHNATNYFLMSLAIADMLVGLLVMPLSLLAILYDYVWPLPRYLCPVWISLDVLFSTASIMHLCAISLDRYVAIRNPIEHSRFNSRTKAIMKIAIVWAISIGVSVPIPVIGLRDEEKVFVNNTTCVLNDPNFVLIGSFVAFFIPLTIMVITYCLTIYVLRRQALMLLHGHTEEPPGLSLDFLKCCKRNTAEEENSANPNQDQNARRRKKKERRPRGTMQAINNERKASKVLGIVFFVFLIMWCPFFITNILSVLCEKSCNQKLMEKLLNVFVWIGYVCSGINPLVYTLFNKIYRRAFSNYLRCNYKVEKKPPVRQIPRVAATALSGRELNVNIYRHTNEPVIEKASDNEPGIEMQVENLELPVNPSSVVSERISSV
As shown below, each of these compounds has a reported Emax value.
Output spec: scalar in %, unitless text.

Example entries begin here.
• CCc1cc(OC)c(CCNCc2ccccc2OC)cc1OC [25E-NBOMe] = 91.8
• COc1ccc(OC)c(CCNCc2ccccc2OC)c1 [25H-NBOMe] = 95.5
• COc1cc(CCNCc2ccccc2O)c(OC)cc1I [25I-NBOH] = 94

Continue with the next compound.
In: Tell me Emax reported for COc1cc(CCNCc2ccccc2OC)c(OC)cc1C [25D-NBOMe]
Out: 96.1

---

// reported Ki for each item listed
target: 5-HT2A receptor (Homo sapiens); experiment: biochemical; assay type: binding
The reply must contain the numeric value and, after it, the unit.

In: Give me measured Ki, please, for this molecule: COc1ccc(OC)c(CCNCc2ccccc2OC)c1 [25H-NBOMe]
Out: 4.9 nM

In: Consider the molecule CCc1cc(OC)c(CCNCc2ccccc2OC)cc1OC [25E-NBOMe] and give its recorded Ki.
Out: 0.127 nM

In: Fill in Ki for record COc1cc(CCNCc2ccccc2OC)c(OC)cc1C [25D-NBOMe]
Out: 0.22 nM

In: Using the record for COc1cc(CCNCc2ccccc2O)c(OC)cc1I [25I-NBOH] , state its measured Ki.
Out: 0.169 nM

---

# Lookup of reported IC50 keyed by entry
target: hDAT (Homo sapiens, UniProt Q01959); experiment: Inhibition of [^3H]DA uptake by HEK-hDAT cells
Sequence (Q01959 whole entry): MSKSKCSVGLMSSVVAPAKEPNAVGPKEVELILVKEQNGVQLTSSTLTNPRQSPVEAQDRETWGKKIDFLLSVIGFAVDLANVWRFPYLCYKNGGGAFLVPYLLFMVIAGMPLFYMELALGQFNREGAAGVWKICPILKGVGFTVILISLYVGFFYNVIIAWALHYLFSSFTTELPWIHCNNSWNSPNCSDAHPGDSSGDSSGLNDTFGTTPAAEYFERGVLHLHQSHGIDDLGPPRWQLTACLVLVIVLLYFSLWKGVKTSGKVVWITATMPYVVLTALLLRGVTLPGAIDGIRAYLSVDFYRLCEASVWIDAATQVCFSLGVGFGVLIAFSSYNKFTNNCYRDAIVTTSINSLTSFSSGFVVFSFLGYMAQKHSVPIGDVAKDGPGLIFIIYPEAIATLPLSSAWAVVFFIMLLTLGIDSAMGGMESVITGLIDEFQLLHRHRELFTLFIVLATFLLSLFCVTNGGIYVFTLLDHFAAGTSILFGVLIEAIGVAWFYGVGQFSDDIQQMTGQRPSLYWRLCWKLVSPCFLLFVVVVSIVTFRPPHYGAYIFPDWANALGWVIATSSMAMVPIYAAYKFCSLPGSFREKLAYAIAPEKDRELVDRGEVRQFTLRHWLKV
Counter-ions that a name gives are not always drawn.
Please state the figure in µM; there is no need to write the unit.

- CCc1cc(OC)c(CCNCc2ccccc2OC)cc1OC [25E-NBOMe]: 34
- COc1cc(CCNCc2ccccc2O)c(OC)cc1I [25I-NBOH]: 30.7

In: Find the measured IC50 of NCCc1c[nH]c2ccc(O)cc12 [5-HT, Serotonin hydrochloride, reference compound] with hDAT (Homo sapiens, UniProt Q01959) as test system.
Out: 3.36

---

biological target: hSERT (Homo sapiens); test: Release of preloaded [^3H]5-HT from HEK-hSERT cells; format: cell-based; conditions: read-out: Drug-induced release of [^3H]neurotransmitter EC50, hSERT [^3H]5-HT; mean ± sem; HEK-hSERT
Sequence (P31645 whole entry): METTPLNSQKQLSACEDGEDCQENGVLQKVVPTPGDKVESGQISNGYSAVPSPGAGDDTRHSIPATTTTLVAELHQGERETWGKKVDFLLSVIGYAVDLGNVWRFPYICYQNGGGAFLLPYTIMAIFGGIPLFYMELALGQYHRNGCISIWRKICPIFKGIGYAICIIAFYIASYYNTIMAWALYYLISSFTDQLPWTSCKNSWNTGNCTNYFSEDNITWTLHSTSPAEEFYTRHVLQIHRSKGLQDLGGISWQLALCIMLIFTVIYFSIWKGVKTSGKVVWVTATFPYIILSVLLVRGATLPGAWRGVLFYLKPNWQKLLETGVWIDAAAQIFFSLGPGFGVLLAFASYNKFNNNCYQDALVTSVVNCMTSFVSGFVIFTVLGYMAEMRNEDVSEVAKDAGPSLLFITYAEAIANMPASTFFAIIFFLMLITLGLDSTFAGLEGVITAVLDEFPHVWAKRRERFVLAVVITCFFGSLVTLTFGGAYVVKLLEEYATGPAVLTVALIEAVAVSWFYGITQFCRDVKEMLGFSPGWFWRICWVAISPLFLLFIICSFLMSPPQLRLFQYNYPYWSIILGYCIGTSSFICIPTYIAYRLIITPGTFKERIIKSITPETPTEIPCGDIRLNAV
pEC50: −log10 of the molar value.
Endpoint Label: pEC50

Below, 3 molecules whose answers are already recorded.
- COc1cc(CC(C)N)c(OC)cc1C (single isomer, unassigned; (-)) [DOM, (-)2,5-dimethoxy-4-methylamphetamine, reference compound]: < 4.00
- COc1cc([N+](=O)[O-])c(OC)cc1CCNCc1ccccc1OC [25N-NBOMe]: < 4.00
- CN[C@@H](C)Cc1ccccc1 [METH, (S+)methamphetamine, reference compound]: 4.56

Consider the additional molecule presented here.
In: Respond only with pEC50 recorded for CCN(CC)C(=O)[C@@H]1C=C2c3cccc4[nH]cc(c34)C[C@H]2N(C)C1 [LSD, (+)lysergic acid diethylamide, reference compound]
Out: < 4.00
